Test system: A. baumannii ATCC19606
Details: MH broth pH 7.4, 16–20 h, 37 °C
Recorded Endpoint: MIC A. baumannii ATCC19606 (µg/mL)
Numeric answer only, unit µg/mL assumed.

Memo: CC(C)C[C@H](NC(=O)[C@H](CC(C)C)NC(=O)[C@H](CC(C)C)NC(=O)[C@H](CCCCN)NC(=O)[C@H](CC(C)C)NC(=O)[C@H](CC(C)C)NC(=O)[C@@H](CCCCN)NC(=O)[C@H](CC(C)C)NC(=O)[C@H](CC(C)C)NC(=O)[C@@H](CCCCN)NC(=O)[C@@H](N)CCCCN)C(N)=O [HP3, KkLLkLLKLLL] , reported MIC A. baumannii ATCC19606: 2

Memo: CC(C)C[C@H](NC(=O)[C@H](CCCCN)NC(=O)[C@H](CC(C)C)NC(=O)[C@H](CC(C)C)NC(=O)[C@@H](CCCCN)NC(=O)[C@H](N)CCCCN)C(=O)N[C@@H](CC(C)C)C(=O)N[C@@H](CCCCN)C(=O)N[C@@H](CC(C)C)C(=O)N[C@H](CC(C)C)C(=O)N[C@H](CC(C)C)C(N)=O [HP18, kkLLKLLKLll] , reported MIC A. baumannii ATCC19606: 8

====

Tested on: A. baumannii ATCC19606
Conditions: MH broth pH 7.4, 16–20 h, 37 °C
Recorded Endpoint: MIC A. baumannii ATCC19606 (µg/mL)
Numeric answer only, unit µg/mL assumed.

Memo: CC(C)C[C@H](NC(=O)[C@H](CC(C)C)NC(=O)[C@H](CC(C)C)NC(=O)[C@@H](CCCCN)NC(=O)[C@@H](CC(C)C)NC(=O)[C@@H](CC(C)C)NC(=O)[C@@H](CCCCN)NC(=O)[C@@H](CC(C)C)NC(=O)[C@H](CC(C)C)NC(=O)[C@H](CCCCN)NC(=O)[C@@H](N)CCCCN)C(N)=O , reported MIC A. baumannii ATCC19606: 8

====

I'd appreciate it if you could supply MIC S. aureus Newman values for the items below.
System: S. aureus Newman
Conditions: MH broth pH 7.4, 16–20 h, 37 °C
Numeric answer only, unit µg/mL assumed.

Entry CC(C)C[C@H](NC(=O)[C@H](CC(C)C)NC(=O)[C@H](CC(C)C)NC(=O)[C@H](CCCCN)NC(=O)[C@H](CC(C)C)NC(=O)[C@H](CC(C)C)NC(=O)[C@H](CCCCN)NC(=O)[C@H](CC(C)C)NC(=O)[C@H](CC(C)C)NC(=O)[C@@H](CCCCN)NC(=O)[C@H](N)CCCCN)C(N)=O [HP2] : MIC S. aureus Newman on S. aureus Newman = 2

Entry CC(C)C[C@H](NC(=O)[C@H](CCCCN)NC(=O)[C@H](N)CCCCN)C(=O)N[C@@H](CC(C)C)C(=O)N[C@@H](CCCCN)C(=O)N[C@@H](CC(C)C)C(=O)N[C@@H](CC(C)C)C(=O)N[C@@H](CCCCN)C(=O)N[C@@H](CC(C)C)C(=O)N[C@@H](CC(C)C)C(=O)N[C@H](CC(C)C)C(N)=O [HP5] : MIC S. aureus Newman on S. aureus Newman = 2

Entry CC(C)C[C@H](NC(=O)[C@H](CC(C)C)NC(=O)[C@H](CC(C)C)NC(=O)[C@H](CCCCN)NC(=O)[C@@H](CC(C)C)NC(=O)[C@H](CC(C)C)NC(=O)[C@H](CCCCN)NC(=O)[C@@H](CC(C)C)NC(=O)[C@@H](CC(C)C)NC(=O)[C@@H](CCCCN)NC(=O)[C@@H](N)CCCCN)C(N)=O [HP11, KkllKLlKLLL] : MIC S. aureus Newman on S. aureus Newman = 2

====

Tested on: PA14 4.13 (phoQ)
Assay: microbe, parasite or virus in culture
Details: supplementary CSV
Recorded Endpoint: MIC P. aeruginosa PA14 4.13 (µg/mL)
Numeric answer only, unit µg/mL assumed.

Memo: CC(C)C[C@H](NC(=O)[C@H](CC(C)C)NC(=O)[C@H](CC(C)C)NC(=O)[C@H](CCCCN)NC(=O)[C@H](CC(C)C)NC(=O)[C@H](CC(C)C)NC(=O)[C@H](CCCCN)NC(=O)[C@@H](CC(C)C)NC(=O)[C@H](CC(C)C)NC(=O)[C@@H](CCCCN)NC(=O)[C@@H](N)CCCCN)C(N)=O [HP4, KkLlKLLKLLL] , reported MIC P. aeruginosa PA14 4.13: 4

Memo: CC(C)C[C@H](NC(=O)[C@H](CCCCN)NC(=O)[C@H](N)CCCCN)C(=O)N[C@@H](CC(C)C)C(=O)N[C@@H](CCCCN)C(=O)N[C@@H](CC(C)C)C(=O)N[C@@H](CC(C)C)C(=O)N[C@@H](CCCCN)C(=O)N[C@@H](CC(C)C)C(=O)N[C@@H](CC(C)C)C(=O)N[C@H](CC(C)C)C(N)=O [HP5] , reported MIC P. aeruginosa PA14 4.13: 4

Memo: CC(C)C[C@H](NC(=O)[C@H](CC(C)C)NC(=O)[C@H](CC(C)C)NC(=O)[C@H](CCCCN)NC(=O)[C@H](CC(C)C)NC(=O)[C@H](CC(C)C)NC(=O)[C@H](CCCCN)NC(=O)[C@H](CC(C)C)NC(=O)[C@H](CC(C)C)NC(=O)[C@@H](CCCCN)NC(=O)[C@H](N)CCCCN)C(N)=O [HP2] , reported MIC P. aeruginosa PA14 4.13: 4

====

System: P. aeruginosa PAO1
Conditions: MH broth pH 7.4, 16–20 h, 37 °C
Non-standard residues stand in square brackets, D forms with d. Residues, ends and D or L forms follow the SMILES beside them.
Recorded Endpoint: MIC P. aeruginosa PAO1 (µg/mL)
Numeric answer only, unit µg/mL assumed.

Memo: CC(C)C[C@H](NC(=O)[C@H](CC(C)C)NC(=O)[C@@H](CC(C)C)NC(=O)[C@@H](CCCCN)NC(=O)[C@H](CC(C)C)NC(=O)[C@H](CC(C)C)NC(=O)[C@H](CCCCN)NC(=O)[C@@H](CC(C)C)NC(=O)[C@@H](CC(C)C)NC(=O)[C@H](CCCCN)NC(=O)[C@@H](N)CCCCN)C(N)=O [HP20, KKllKLLklLL] , reported MIC P. aeruginosa PAO1: 16

Memo: CC(C)CC(NC(=O)C(CC(C)C)NC(=O)C(CC(C)C)NC(=O)C(CCCCN)NC(=O)C(CC(C)C)NC(=O)C(CC(C)C)NC(=O)C(CCCCN)NC(=O)C(CC(C)C)NC(=O)C(CC(C)C)NC(=O)C(CCCCN)NC(=O)C(N)CCCCN)C(N)=O (racemic) [sr-ln65] , reported MIC P. aeruginosa PAO1: 4

Memo: CC(C)C[C@H](NC(=O)[C@H](CC(C)C)NC(=O)[C@H](CC(C)C)NC(=O)[C@H](CCCCN)NC(=O)[C@H](CC(C)C)NC(=O)[C@H](CC(C)C)NC(=O)[C@H](CCCCN)NC(=O)[C@H](CC(C)C)NC(=O)[C@H](CC(C)C)NC(=O)[C@@H](CCCCN)NC(=O)[C@H](N)CCCCN)C(N)=O [HP2] , reported MIC P. aeruginosa PAO1: 4

Memo: CC[C@H](C)[C@H](NC(=O)[C@@H](NC(=O)[C@@H](NC(=O)[C@@H](CCCCN)NC(=O)[C@@H](NC(=O)[C@@H](NC(=O)[C@@H](CCCCN)NC(=O)[C@@H](NC(=O)[C@@H](NC(=O)[C@@H](CCCCN)NC(=O)[C@H](N)CCCCN)[C@@H](C)CC)[C@@H](C)CC)[C@@H](C)CC)[C@@H](C)CC)[C@@H](C)CC)[C@@H](C)CC)C(N)=O [HP35, kkIIkIIkIII] (H-[dK][dK]II[dK]II[dK]III-NH2) , reported MIC P. aeruginosa PAO1: 16

Memo: CC(C)C[C@H](NC(=O)[C@H](CC(C)C)NC(=O)[C@H](CC(C)C)NC(=O)[C@H](CCCCN)NC(=O)[C@@H](CC(C)C)NC(=O)[C@@H](CC(C)C)NC(=O)[C@H](CCCCN)NC(=O)[C@H](CC(C)C)NC(=O)[C@H](CC(C)C)NC(=O)[C@H](CCCCN)NC(=O)[C@@H](N)CCCCN)C(N)=O [HP6, KKLLKllKLLL] , reported MIC P. aeruginosa PAO1: 8

====

I'd appreciate it if you could supply MIC K. pneumoniae NCTC418 values for the items below.
Test system: K. pneumoniae NCTC418
Conditions: MH broth pH 7.4, 16–20 h, 37 °C
Non-standard residues stand in square brackets, D forms with d. Residues, ends and D or L forms follow the SMILES beside them.

Entry CC(C)C[C@H](NC(=O)[C@H](CC(C)C)NC(=O)[C@H](CC(C)C)NC(=O)[C@H](CCCCN)NC(=O)[C@@H](CC(C)C)NC(=O)[C@H](CC(C)C)NC(=O)[C@H](CCCCN)NC(=O)[C@@H](CC(C)C)NC(=O)[C@@H](CC(C)C)NC(=O)[C@@H](CCCCN)NC(=O)[C@@H](N)CCCCN)C(N)=O [HP11, KkllKLlKLLL] : MIC K. pneumoniae NCTC418 on K. pneumoniae NCTC418 = 4 to 8 µg/mL

Entry CC(C)C[C@H](NC(=O)[C@H](CC(C)C)NC(=O)[C@@H](CC(C)C)NC(=O)[C@@H](CCCCN)NC(=O)[C@H](CC(C)C)NC(=O)[C@H](CC(C)C)NC(=O)[C@H](CCCCN)NC(=O)[C@@H](CC(C)C)NC(=O)[C@@H](CC(C)C)NC(=O)[C@H](CCCCN)NC(=O)[C@@H](N)CCCCN)C(N)=O [HP20, KKllKLLklLL] : MIC K. pneumoniae NCTC418 on K. pneumoniae NCTC418 = >64 µg/mL

Entry CC(C)C[C@H](NC(=O)[C@H](CC(C)C)NC(=O)[C@H](CC(C)C)NC(=O)[C@@H](CCCNC(=N)N)NC(=O)[C@H](CC(C)C)NC(=O)[C@H](CC(C)C)NC(=O)[C@@H](CCCNC(=N)N)NC(=O)[C@H](CC(C)C)NC(=O)[C@H](CC(C)C)NC(=O)[C@@H](CCCNC(=N)N)NC(=O)[C@H](N)CCCNC(=N)N)C(N)=O [HP33, rrLLrLLrLLL] (H-[dR][dR]LL[dR]LL[dR]LLL-NH2) : MIC K. pneumoniae NCTC418 on K. pneumoniae NCTC418 = 4 to 8 µg/mL

Entry CC(C)C[C@H](NC(=O)[C@H](CC(C)C)NC(=O)[C@H](CC(C)C)NC(=O)[C@@H](CCCCN)NC(=O)[C@H](CC(C)C)NC(=O)[C@H](CC(C)C)NC(=O)[C@@H](CCCCN)NC(=O)[C@H](CC(C)C)NC(=O)[C@H](CC(C)C)NC(=O)[C@@H](CCCCN)NC(=O)[C@H](N)CCCCN)C(N)=O [ln69, kkLLkLLkLLL] : MIC K. pneumoniae NCTC418 on K. pneumoniae NCTC418 = 8 µg/mL

Entry CC(C)C[C@H](NC(=O)[C@H](CC(C)C)NC(=O)[C@H](CC(C)C)NC(=O)[C@H](CCCCN)NC(=O)[C@H](CC(C)C)NC(=O)[C@H](CC(C)C)NC(=O)[C@@H](CCCCN)NC(=O)[C@H](CC(C)C)NC(=O)[C@H](CC(C)C)NC(=O)[C@@H](CCCCN)NC(=O)[C@H](N)CCCCN)C(N)=O [HP10, kkLLkLLKLLL] : MIC K. pneumoniae NCTC418 on K. pneumoniae NCTC418 = 4 µg/mL

Entry CC(C)C[C@H](NC(=O)[C@H](CC(C)C)NC(=O)[C@H](CC(C)C)NC(=O)[C@H](CCCCN)NC(=O)[C@H](CC(C)C)NC(=O)[C@H](CC(C)C)NC(=O)[C@H](CCCCN)NC(=O)[C@H](CC(C)C)NC(=O)[C@H](CC(C)C)NC(=O)[C@@H](CCCCN)NC(=O)[C@H](N)CCCCN)C(N)=O [HP2] : MIC K. pneumoniae NCTC418 on K. pneumoniae NCTC418 = 2 to 4 µg/mL
